System: EMC-BAC-2
method: relative viability (nuclei count vs DMSO), 5 days (fraction); higher = more cells survive
runConditions: first compound 0.8 µM
Catalogue of relative viability values
No unit in the answer, only the number.

State the recorded relative viability for this entry: COc1nc(C)cnc1NS(=O)(=O)c1cccnc1-c1ccc(-c2nnco2)cc1 [Zibotentan] + CC(C)C[C@H](NC(=O)[C@H](Cc1ccccc1)NC(=O)c1cnccn1)B(O)O [Bortezomib] (partner 0.002 µM)
1.07

Proceed to O=c1cc(-c2cccc3c2Sc2ccccc2S3)oc(N2CCOCC2)c1 + C[C@]1(O)C[C@@H](c2nc(-c3ccc4ccc(-c5ccccc5)nc4c3)c3c(N)nccn32)C1 [Linsitinib] (partner 1 µM)
0.842

Next molecule up: O=c1cc(-c2cccc3c2Sc2ccccc2S3)oc(N2CCOCC2)c1 + CC(=O)c1c(C)c2cnc(Nc3ccc(N4CCNCC4)cn3)nc2n(C2CCCC2)c1=O [Palbociclib] (partner 0.5 µM)
0.536

***
For COc1nc(C)cnc1NS(=O)(=O)c1cccnc1-c1ccc(-c2nnco2)cc1 [Zibotentan] + Nc1ncn([C@H]2C[C@H](O)[C@@H](CO)O2)c(=O)n1 [Decitabine] (partner 2 µM) , what is its reported relative viability?
0.968

Next: O=c1cc(-c2cccc3c2Sc2ccccc2S3)oc(N2CCOCC2)c1 + CS(=O)(=O)CCNCc1ccc(-c2ccc3ncnc(Nc4ccc(OCc5cccc(F)c5)c(Cl)c4)c3c2)o1 [Lapatinib] (partner 2 µM)
0.887

How about O=c1cc(-c2cccc3c2Sc2ccccc2S3)oc(N2CCOCC2)c1 + O=C(CCCCCCC(=O)Nc1ccccc1)NO [Vorinostat] (partner 1 µM) ?
0.524

// same read-out, input: COc1nc(C)cnc1NS(=O)(=O)c1cccnc1-c1ccc(-c2nnco2)cc1 [Zibotentan] + N=C(N)NC(=N)NCCc1ccccc1 [Phenformin] (partner 250 µM)
0.61

Again, but for COc1nc(C)cnc1NS(=O)(=O)c1cccnc1-c1ccc(-c2nnco2)cc1 [Zibotentan] + Cc1cc(Nc2cc(N3CCN(C)CC3)nc(Sc3ccc(NC(=O)C4CC4)cc3)n2)n[nH]1 [Tozasertib] (partner 0.1 µM)
0.293

// same read-out, input: COc1nc(C)cnc1NS(=O)(=O)c1cccnc1-c1ccc(-c2nnco2)cc1 [Zibotentan] + CCNC(=O)c1noc(-c2cc(C(C)C)c(O)cc2O)c1-c1ccc(CN2CCOCC2)cc1 [Luminespib] (partner 0.01 µM)
1.13

Next: COc1nc(C)cnc1NS(=O)(=O)c1cccnc1-c1ccc(-c2nnco2)cc1 [Zibotentan] + CS(=O)(=O)N1CCN(Cc2cc3nc(-c4cccc5[nH]ncc45)nc(N4CCOCC4)c3s2)CC1 [Pictilisib] (partner 1 µM)
0.56

// same read-out, input: O=c1cc(-c2cccc3c2Sc2ccccc2S3)oc(N2CCOCC2)c1 + C[C@@H](Oc1cc(-c2cnn(C3CCNCC3)c2)cnc1N)c1c(Cl)ccc(F)c1Cl [Crizotinib] (partner 1 µM)
0.841

###

Tested on: NCI-H1975
method: relative viability (nuclei count vs DMSO), 5 days (fraction); higher = more cells survive
runConditions: first compound 8 µM
measurementName: relative viability
I'd appreciate a reply containing only the number, no unit.

The cases that follow already have their relative viability on record.
Tell me the measured relative viability of O=c1cc(-c2cccc3c2Sc2ccccc2S3)oc(N2CCOCC2)c1 + Cc1nc(Nc2ncc(C(=O)Nc3c(C)cccc3Cl)s2)cc(N2CCN(CCO)CC2)n1 [Dasatinib] (partner 0.075 µM) , please.
0.326

Request: O=c1cc(-c2cccc3c2Sc2ccccc2S3)oc(N2CCOCC2)c1 + CC(=O)c1c(C)c2cnc(Nc3ccc(N4CCNCC4)cn3)nc2n(C2CCCC2)c1=O [Palbociclib] (partner 0.5 µM)
0.744

How about this compound: O=c1cc(-c2cccc3c2Sc2ccccc2S3)oc(N2CCOCC2)c1 + COc1cc2c(Oc3ccc(NC(=O)C4(C(=O)Nc5ccc(F)cc5)CC4)cc3F)ccnc2cc1OCCCN1CCOCC1 [Foretinib] (partner 0.25 µM)
1.02

Others:
Entry O=c1cc(-c2cccc3c2Sc2ccccc2S3)oc(N2CCOCC2)c1 + CC1(C)CCC(c2ccc(Cl)cc2)=C(CN2CCN(c3ccc(C(=O)NS(=O)(=O)c4ccc(N[C@H](CCN5CCOCC5)CSc5ccccc5)c(S(=O)(=O)C(F)(F)F)c4)cc3)CC2)C1 [Navitoclax] (partner 0.5 µM) has what relative viability?
0.997

Consider next the compound O=c1cc(-c2cccc3c2Sc2ccccc2S3)oc(N2CCOCC2)c1 + N=C(N)NC(=N)NCCc1ccccc1 [Phenformin] (partner 250 µM) in the same way.
0.418

For O=c1cc(-c2cccc3c2Sc2ccccc2S3)oc(N2CCOCC2)c1 + C[C@@H](Oc1cc(-c2cnn(C3CCNCC3)c2)cnc1N)c1c(Cl)ccc(F)c1Cl [Crizotinib] (partner 1 µM) then?
0.98
